Assay: Decomposition temperature
Type: physicochemical
Parameters: unit not given here
Conditions: comparison table, Example 7
MEASURED ENDPOINT: Decomposition temperature
Give bare numbers.

For orientation, consider the following solved cases.
Cc1ccc(-c2ccc(O[C@H]3CN4CCC3CC4)cn2)cc1.O=C(O)CC(=O)O [mono-malonate salt]: 148
Cc1ccc(-c2ccc(O[C@H]3CN4CCC3CC4)cn2)cc1.O=P(O)(O)O [Form A of the mono-phosphate salt]: 222
Cc1ccc(-c2ccc(O[C@H]3CN4CCC3CC4)cn2)cc1 [Compound A]: 224
Cc1ccc(-c2ccc(O[C@H]3CN4CCC3CC4)cn2)cc1.O=C(O)/C=C\C(=O)O [mono-maleate salt]: 207

Here are 3 compounds. What values of Decomposition temperature were reported for them?
1. Cc1ccc(-c2ccc(O[C@H]3CN4CCC3CC4)cn2)cc1.Cl [mono-hydrochloride salt]
2. Cc1ccc(-c2ccc(O[C@H]3CN4CCC3CC4)cn2)cc1.O=C(O)/C=C/C(=O)O [Compound B]
3. Cc1ccc(-c2ccc(O[C@H]3CN4CCC3CC4)cn2)cc1.O=C(O)CCC(=O)O [Form A of the mono-succinate salt]

1: 262; 2: 207; 3: 222
